# viability, T/C annotations
system: 186277-243-T-J2-PDC multi-cell spheroid viability; experiment: Anticancer human tumor 186277-243-T-J2-PDC patient-derived colon adenocarcinoma cell line growth inhibition [PI3K]; details: second compound 3.16 µM; first compound 0.1 µM; hits give low values;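 further: spheroids exposed to compounds for seven days before viability reading; 100% = DMSO vehicle control viability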
Numeric answer only, unit % assumed.

// solved cases for viability, T/C follow
>>> meas_value("CNC(=O)c1ccc(N2C(=S)N(c3ccc(C#N)c(C(F)(F)F)c3)C(=O)C2(C)C)cc1F + CC(Nc1ncnc2nc[nH]c12)c1cc2cccc(Cl)c2c(=O)n1-c1ccccc1")
128
>>> meas_value("Cn1ncc(Cl)c1-c1cc(C(=O)NC(CN)Cc2cccc(F)c2)sc1Cl (stereo unspecified) + Cc1nc(NC(=O)N2CCCC2C(N)=O)sc1-c1ccnc(C(C)(C)C(F)(F)F)c1")
33.7
>>> meas_value("CC(Cn1ccc(-c2ccc(C#N)c(Cl)c2)n1)NC(=O)c1cc(C(C)O)[nH]n1 (stereo unspecified) + CC(Nc1ncnc2nc[nH]c12)c1cc2cccc(Cl)c2c(=O)n1-c1ccccc1")
102

// lookup viability, T/C for CNC(=O)c1ccc(N2C(=S)N(c3ccc(C#N)c(C(F)(F)F)c3)C(=O)C2(C)C)cc1F + Cc1nc(NC(=O)N2CCCC2C(N)=O)sc1-c1ccnc(C(C)(C)C(F)(F)F)c1
62.6

Now consider C[C@@H](NC(=O)c1ncnc(N)c1Cl)c1ncc(C(=O)Nc2cc(C(F)(F)F)c(Cl)cn2)s1 + CC(Nc1ncnc2nc[nH]c12)c1cc2cccc(Cl)c2c(=O)n1-c1ccccc1 .
97.2

Now consider CC1(C)CCC(CN2CCN(c3ccc(C(=O)NS(=O)(=O)c4ccc(NCC5CCOCC5)c([N+](=O)[O-])c4)c(Oc4cnc5[nH]ccc5c4)c3)CC2)=C(c2ccc(Cl)cc2)C1 + CC(Nc1ncnc2nc[nH]c12)c1cc2cccc(Cl)c2c(=O)n1-c1ccccc1 .
115

Now consider CC(C)NCC(C(=O)N1CCN(c2ncnc3c2C(C)CC3O)CC1)c1ccc(Cl)cc1 (stereo unspecified) + Cc1nc(NC(=O)N2CCCC2C(N)=O)sc1-c1ccnc(C(C)(C)C(F)(F)F)c1 .
47

Now consider CCCS(=O)(=O)Nc1ccc(F)c(C(=O)c2c[nH]c3ncc(-c4ccc(Cl)cc4)cc23)c1F + Cc1nc(NC(=O)N2CCCC2C(N)=O)sc1-c1ccnc(C(C)(C)C(F)(F)F)c1 .
81.6

Now consider C[C@@H](NC(=O)c1ncnc(N)c1Cl)c1ncc(C(=O)Nc2cc(C(F)(F)F)c(Cl)cn2)s1 + Cc1nc(NC(=O)N2CCCC2C(N)=O)sc1-c1ccnc(C(C)(C)C(F)(F)F)c1 .
65.8

Now consider Cn1ncc(Cl)c1-c1cc(C(=O)NC(CN)Cc2cccc(F)c2)sc1Cl (stereo unspecified) + CC(Nc1ncnc2nc[nH]c12)c1cc2cccc(Cl)c2c(=O)n1-c1ccccc1 .
70.6

Now consider Cn1nccc1Nc1nccc(-c2ccn(C(CO)c3ccc(Cl)c(F)c3)c(=O)c2)n1 (stereo unspecified) + CC(Nc1ncnc2nc[nH]c12)c1cc2cccc(Cl)c2c(=O)n1-c1ccccc1 .
100
